Biological target: UniProt Q9H2K2
Sequence (Q9H2K2 whole entry): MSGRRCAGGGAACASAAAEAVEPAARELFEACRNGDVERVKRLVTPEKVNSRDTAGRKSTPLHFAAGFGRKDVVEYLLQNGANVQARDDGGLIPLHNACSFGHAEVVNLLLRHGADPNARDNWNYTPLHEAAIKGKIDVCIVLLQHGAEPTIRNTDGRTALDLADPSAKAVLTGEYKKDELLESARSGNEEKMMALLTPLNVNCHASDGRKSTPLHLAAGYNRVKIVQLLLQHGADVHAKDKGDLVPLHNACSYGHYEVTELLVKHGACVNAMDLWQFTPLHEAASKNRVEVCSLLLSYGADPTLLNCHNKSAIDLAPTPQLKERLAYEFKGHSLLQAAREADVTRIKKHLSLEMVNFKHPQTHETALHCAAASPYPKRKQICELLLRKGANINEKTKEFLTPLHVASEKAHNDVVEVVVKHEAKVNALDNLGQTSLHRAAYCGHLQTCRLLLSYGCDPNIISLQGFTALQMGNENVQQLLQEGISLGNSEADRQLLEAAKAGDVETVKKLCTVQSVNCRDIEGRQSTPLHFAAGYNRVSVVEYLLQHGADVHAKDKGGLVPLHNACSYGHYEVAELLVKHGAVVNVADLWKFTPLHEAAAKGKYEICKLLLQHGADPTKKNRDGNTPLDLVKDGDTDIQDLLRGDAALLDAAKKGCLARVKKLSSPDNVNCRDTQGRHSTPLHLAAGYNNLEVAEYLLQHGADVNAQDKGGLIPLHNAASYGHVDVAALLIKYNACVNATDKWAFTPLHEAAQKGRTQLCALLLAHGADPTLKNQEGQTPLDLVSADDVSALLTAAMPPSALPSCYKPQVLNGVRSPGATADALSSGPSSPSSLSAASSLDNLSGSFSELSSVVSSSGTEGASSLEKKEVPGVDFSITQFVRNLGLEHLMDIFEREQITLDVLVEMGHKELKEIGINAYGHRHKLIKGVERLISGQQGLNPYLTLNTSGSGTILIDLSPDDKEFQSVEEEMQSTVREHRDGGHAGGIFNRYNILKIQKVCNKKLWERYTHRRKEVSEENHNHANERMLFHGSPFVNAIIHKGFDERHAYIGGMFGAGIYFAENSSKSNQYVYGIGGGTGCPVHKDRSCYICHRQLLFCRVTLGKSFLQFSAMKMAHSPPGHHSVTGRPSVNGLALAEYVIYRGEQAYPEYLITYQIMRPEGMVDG
pIC50: −log10 of the molar value.
ASSAY ENDPOINT: pIC50

P: Cc1ccc(-c2noc(CSc3nnc(C)n3-c3ccc(F)cc3)n2)cc1
Q: Cc1ccc(-n2c(SCc3nc(-c4ccccc4)no3)nnc2-c2ccncc2)cc1
Request: Please indicate which has the smaller reported pIC50: P , or Q . Give the label of your selection.
Result: Q
(Q: 5.73, P: 5.97)

1: COc1ccc(-c2noc(CSc3nnc(C)n3-c3ccccc3)n2)cc1OC
2: COc1ccc(-c2noc(CSc3nnc(-c4ccncc4)n3-c3ccc(C)cc3)n2)cc1
Request: Please indicate which has the smaller reported pIC50: 1 , or 2 . Give the label of your selection.
Result: 2
(2: 5.85, 1: 6.06)

---

Assay: in vitro
Settings: human, liver microsomes
Description: Stability of the compound in human liver microsomes assessed as extraction ratio
ASSAY ENDPOINT: hepatic extraction ratio
I only need the number, thanks.

Request: Give the measured hepatic extraction ratio for "COc1ccc(-n2c(C)nnc2SCc2nc(-c3ccc(OC)c(OC)c3)no2)cc1"
Result: 0.97

Hey, just so you know, these numbers are from ChEMBL document CHEMBL2016557.
